Sourced from ChEMBL document CHEMBL2169776

ASSAY METHOD TEXT: Therapeutic index, ratio of HC10 for human erythrocyte cells to MIC for multidrug resistant bacterial strains
REPORTED CONDITIONS: read-out: TI
QUANTITY MEASURED: selectivity ratio
Number, no unit, nothing else.

STRUCTURE SMILES STRING: CC(=O)N[C@@H](CCCCN)CC(=O)N[C@@H](Cc1ccccc1)C(=O)N[C@@H](CCCCN)CC(=O)N[C@@H](Cc1ccccc1)C(=O)N[C@@H](CCCCN)CC(=O)N[C@@H](Cc1ccccc1)C(=O)N[C@@H](CCCCN)CC(=O)N[C@@H](Cc1ccccc1)C(=O)N[C@@H](CCCCN)CC(=O)N[C@@H](Cc1ccccc1)C(=O)N[C@@H](CCCCN)CC(=O)N[C@@H](Cc1ccccc1)C(=O)N[C@@H](CCCCN)CC(=O)N[C@@H](Cc1ccccc1)C(=O)N[C@@H](CCCCN)CC(=O)N[C@@H](Cc1ccccc1)C(N)=O
selectivity ratio: 8

Now for a further compound.
Look up selectivity ratio for this compound: CC(=O)N[C@@H](CCCCN)CC(=O)N[C@H](CC(=O)N[C@@H](CCCCN)CC(=O)N[C@H](CC(=O)N[C@@H](CCCCN)CC(=O)N[C@H](CC(=O)N[C@@H](CCCCN)CC(=O)N[C@H](CC(=O)N[C@@H](CCCCN)CC(=O)N[C@H](CC(=O)N[C@@H](CCCCN)CC(=O)N[C@H](CC(=O)N[C@@H](CCCCN)CC(=O)N[C@H](CC(=O)N[C@@H](CCCCN)CC(=O)N[C@H](CC(N)=O)Cc1ccccc1)Cc1ccccc1)Cc1ccccc1)Cc1ccccc1)Cc1ccccc1)Cc1ccccc1)Cc1ccccc1)Cc1ccccc1
4
